Data provenance is patent US20190263864A1.

# target-or-test-system: T1, HLA-A0201 on the surface of T2 cells (human)
# T1 construct: MHC class I molecule on TAP-deficient T2 cells
# experimental-protocol: T2 cell peptide loading, 100 µM peptide, anti-HLA-A*02:01 FITC flow cytometry

>  <binder>
FMLDGLYSL [mutant polypeptide's variant (depicted in FMLDGLYSL, SEQ ID NO:5)]

>  <Mean fluorescence intensity>
714

$$$$
>  <binder>
FILDGSYSV [wild-type polypeptide (depicted in FILDGSYSV, SEQ ID NO:7)]

>  <Mean fluorescence intensity>
589

$$$$
>  <binder>
FILDGLYSL [mutant polypeptide's variant (depicted in FILDGLYSL, SEQ ID NO:2)]

>  <Mean fluorescence intensity>
681

$$$$
>  <binder>
FLLDGLYSL [mutant polypeptide's variant (depicted in FLLDGLYSL, SEQ ID NO:6)]

>  <Mean fluorescence intensity>
612

$$$$
>  <binder>
FMLDGLYSV [mutant polypeptide's variant (depicted in FMLDGLYSV, SEQ ID NO:3)]

>  <Mean fluorescence intensity>
759

$$$$
>  <binder>
FLLDGLYSV [mutant polypeptide's variant (depicted in FLLDGLYSV, SEQ ID NO:4)]

>  <Mean fluorescence intensity>
692

$$$$
>  <binder>
FILDGLYSV [mutant polypeptide (depicted in FILDGLYSV, SEQ ID NO:1)]

>  <Mean fluorescence intensity>
664

$$$$
